assay: activity coefficient (dimensionless); of the first substance listed, at infinite dilution; xn = mol fraction of the nth substance listed; conditions: 343.15 K; 101.33 kPa; Liquid; Chromatography; x1 = 0
Entries annotated with measured activity coefficient
Measurement kind: activity coefficient

>>> experimental_value("CC(C)=O [acetone] + CCCCCCCCn1cc[n+](C)c1C.O=S(=O)([N-]S(=O)(=O)C(F)(F)F)C(F)(F)F")
0.34
>>> experimental_value("CC(C)CO [2-methyl-1-propanol] + CCCCCCCCn1cc[n+](C)c1C.O=S(=O)([N-]S(=O)(=O)C(F)(F)F)C(F)(F)F")
1.39
>>> experimental_value("CCCCCCC [heptane] + CCCCCCCCn1cc[n+](C)c1C.O=S(=O)([N-]S(=O)(=O)C(F)(F)F)C(F)(F)F")
6.29
>>> experimental_value("CC(C)CCO [3-methylbutan-1-ol] + CCCCCCCCn1cc[n+](C)c1C.O=S(=O)([N-]S(=O)(=O)C(F)(F)F)C(F)(F)F")
1.55
>>> experimental_value("Cc1cccc(C)c1 [1,3-dimethylbenzene] + CCCCCCCCn1cc[n+](C)c1C.O=S(=O)([N-]S(=O)(=O)C(F)(F)F)C(F)(F)F")
1.04
>>> experimental_value("CCCCCCCC [octane] + CCCCCCCCn1cc[n+](C)c1C.O=S(=O)([N-]S(=O)(=O)C(F)(F)F)C(F)(F)F")
7.17
>>> experimental_value("CCO [ethanol] + CCCCCCCCn1cc[n+](C)c1C.O=S(=O)([N-]S(=O)(=O)C(F)(F)F)C(F)(F)F")
1.15

---

assay: activity coefficient (dimensionless); of the first substance listed, at infinite dilution; xn = mol fraction of the nth substance listed; details: 343.15 K; 101.33 kPa; Liquid; Chromatography; x1 = 0
Readings of activity coefficient for the listed compounds
Measurement kind: activity coefficient

>>> experimental_value("CC(C)O [propan-2-ol] + CCCCCCCCn1cc[n+](C)c1C.O=S(=O)([N-]S(=O)(=O)C(F)(F)F)C(F)(F)F")
1.34
>>> experimental_value("ClC(Cl)Cl [trichloromethane] + CCCCCCCCn1cc[n+](C)c1C.O=S(=O)([N-]S(=O)(=O)C(F)(F)F)C(F)(F)F")
0.6
>>> experimental_value("C1=CCCCC1 [cyclohexene] + CCCCCCCCn1cc[n+](C)c1C.O=S(=O)([N-]S(=O)(=O)C(F)(F)F)C(F)(F)F")
2.28
>>> experimental_value("ClCCl [dichloromethane] + CCCCCCCCn1cc[n+](C)c1C.O=S(=O)([N-]S(=O)(=O)C(F)(F)F)C(F)(F)F")
0.64
>>> experimental_value("C=CCCCC [hex-1-ene] + CCCCCCCCn1cc[n+](C)c1C.O=S(=O)([N-]S(=O)(=O)C(F)(F)F)C(F)(F)F")
3.18
>>> experimental_value("CO [methanol] + CCCCCCCCn1cc[n+](C)c1C.O=S(=O)([N-]S(=O)(=O)C(F)(F)F)C(F)(F)F")
1.05
>>> experimental_value("CCCO [propan-1-ol] + CCCCCCCCn1cc[n+](C)c1C.O=S(=O)([N-]S(=O)(=O)C(F)(F)F)C(F)(F)F")
1.22
>>> experimental_value("Cc1ccccc1C [1,2-dimethylbenzene] + CCCCCCCCn1cc[n+](C)c1C.O=S(=O)([N-]S(=O)(=O)C(F)(F)F)C(F)(F)F")
0.96
>>> experimental_value("Cc1ccc(C)cc1 [1,4-dimethylbenzene] + CCCCCCCCn1cc[n+](C)c1C.O=S(=O)([N-]S(=O)(=O)C(F)(F)F)C(F)(F)F")
1
>>> experimental_value("CCCCC [pentane] + CCCCCCCCn1cc[n+](C)c1C.O=S(=O)([N-]S(=O)(=O)C(F)(F)F)C(F)(F)F")
4.24
>>> experimental_value("CCCCCO [pentan-1-ol] + CCCCCCCCn1cc[n+](C)c1C.O=S(=O)([N-]S(=O)(=O)C(F)(F)F)C(F)(F)F")
1.62
>>> experimental_value("CC#N [acetonitrile] + CCCCCCCCn1cc[n+](C)c1C.O=S(=O)([N-]S(=O)(=O)C(F)(F)F)C(F)(F)F")
0.37
>>> experimental_value("CCCCCCCCC [nonane] + CCCCCCCCn1cc[n+](C)c1C.O=S(=O)([N-]S(=O)(=O)C(F)(F)F)C(F)(F)F")
9.04
>>> experimental_value("C1COCCO1 [1,4-dioxane] + CCCCCCCCn1cc[n+](C)c1C.O=S(=O)([N-]S(=O)(=O)C(F)(F)F)C(F)(F)F")
0.47
>>> experimental_value("CCCCCCCCCC [decane] + CCCCCCCCn1cc[n+](C)c1C.O=S(=O)([N-]S(=O)(=O)C(F)(F)F)C(F)(F)F")
11.2
>>> experimental_value("CCC(C)O (stereo unspecified) [butan-2-ol] + CCCCCCCCn1cc[n+](C)c1C.O=S(=O)([N-]S(=O)(=O)C(F)(F)F)C(F)(F)F")
1.29
>>> experimental_value("c1ccccc1 [benzene] + CCCCCCCCn1cc[n+](C)c1C.O=S(=O)([N-]S(=O)(=O)C(F)(F)F)C(F)(F)F")
0.63
>>> experimental_value("C1CCOC1 [tetrahydrofuran] + CCCCCCCCn1cc[n+](C)c1C.O=S(=O)([N-]S(=O)(=O)C(F)(F)F)C(F)(F)F")
0.4
>>> experimental_value("C1CCCCC1 [cyclohexane] + CCCCCCCCn1cc[n+](C)c1C.O=S(=O)([N-]S(=O)(=O)C(F)(F)F)C(F)(F)F")
3.37
>>> experimental_value("Cc1ccccc1 [toluene] + CCCCCCCCn1cc[n+](C)c1C.O=S(=O)([N-]S(=O)(=O)C(F)(F)F)C(F)(F)F")
0.82
>>> experimental_value("CCCCCC [hexane] + CCCCCCCCn1cc[n+](C)c1C.O=S(=O)([N-]S(=O)(=O)C(F)(F)F)C(F)(F)F")
4.87
>>> experimental_value("ClC(Cl)(Cl)Cl [tetrachloromethane] + CCCCCCCCn1cc[n+](C)c1C.O=S(=O)([N-]S(=O)(=O)C(F)(F)F)C(F)(F)F")
1.46
>>> experimental_value("CCc1ccccc1 [ethylbenzene] + CCCCCCCCn1cc[n+](C)c1C.O=S(=O)([N-]S(=O)(=O)C(F)(F)F)C(F)(F)F")
1.14
>>> experimental_value("CCCCO [butan-1-ol] + CCCCCCCCn1cc[n+](C)c1C.O=S(=O)([N-]S(=O)(=O)C(F)(F)F)C(F)(F)F")
1.46
>>> experimental_value("CCOC(C)=O [ethyl acetate] + CCCCCCCCn1cc[n+](C)c1C.O=S(=O)([N-]S(=O)(=O)C(F)(F)F)C(F)(F)F")
0.57
>>> experimental_value("CC1CCCCC1 [methylcyclohexane] + CCCCCCCCn1cc[n+](C)c1C.O=S(=O)([N-]S(=O)(=O)C(F)(F)F)C(F)(F)F")
3.79

---

test: activity coefficient (dimensionless); of the first substance listed, at infinite dilution; xn = mol fraction of the nth substance listed; conditions: 323.15 K; 101.33 kPa; Liquid; Chromatography; x1 = 0
Each entry below carries its recorded activity coefficient.
Measurement kind: activity coefficient

>>> experimental_value("CCCCC [pentane] + CCCCCCCCn1cc[n+](C)c1C.O=S(=O)([N-]S(=O)(=O)C(F)(F)F)C(F)(F)F")
5.63
>>> experimental_value("C1COCCO1 [1,4-dioxane] + CCCCCCCCn1cc[n+](C)c1C.O=S(=O)([N-]S(=O)(=O)C(F)(F)F)C(F)(F)F")
0.56
>>> experimental_value("c1ccccc1 [benzene] + CCCCCCCCn1cc[n+](C)c1C.O=S(=O)([N-]S(=O)(=O)C(F)(F)F)C(F)(F)F")
0.74
>>> experimental_value("CC(C)O [propan-2-ol] + CCCCCCCCn1cc[n+](C)c1C.O=S(=O)([N-]S(=O)(=O)C(F)(F)F)C(F)(F)F")
1.82
>>> experimental_value("Cc1ccccc1C [1,2-dimethylbenzene] + CCCCCCCCn1cc[n+](C)c1C.O=S(=O)([N-]S(=O)(=O)C(F)(F)F)C(F)(F)F")
1.08
>>> experimental_value("CCOC(C)=O [ethyl acetate] + CCCCCCCCn1cc[n+](C)c1C.O=S(=O)([N-]S(=O)(=O)C(F)(F)F)C(F)(F)F")
0.67
>>> experimental_value("C1=CCCCC1 [cyclohexene] + CCCCCCCCn1cc[n+](C)c1C.O=S(=O)([N-]S(=O)(=O)C(F)(F)F)C(F)(F)F")
2.77
>>> experimental_value("CCCO [propan-1-ol] + CCCCCCCCn1cc[n+](C)c1C.O=S(=O)([N-]S(=O)(=O)C(F)(F)F)C(F)(F)F")
1.67
>>> experimental_value("CC(C)=O [acetone] + CCCCCCCCn1cc[n+](C)c1C.O=S(=O)([N-]S(=O)(=O)C(F)(F)F)C(F)(F)F")
0.41
>>> experimental_value("CCCCCCCC [octane] + CCCCCCCCn1cc[n+](C)c1C.O=S(=O)([N-]S(=O)(=O)C(F)(F)F)C(F)(F)F")
9.5
>>> experimental_value("CCc1ccccc1 [ethylbenzene] + CCCCCCCCn1cc[n+](C)c1C.O=S(=O)([N-]S(=O)(=O)C(F)(F)F)C(F)(F)F")
1.29
>>> experimental_value("CC(C)CCO [3-methylbutan-1-ol] + CCCCCCCCn1cc[n+](C)c1C.O=S(=O)([N-]S(=O)(=O)C(F)(F)F)C(F)(F)F")
2.11
